Tested on: M. tuberculosis H37Rv growth inhibition with meropenem
Assay: dose response, H37Rv, with and without meropenem (AID 434987);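 note: growth over 7 days at 37 °C before Alamar Blue read on day 9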
Settings: measured here: IC90 with meropenem
assay_readout: IC90

Query :: Write down the reported IC90 of `Cc1c(C=O)c(C=O)c(C)n1Cc1ccccc1` , test system: M. tuberculosis H37Rv growth inhibition with meropenem.
Result :: 69.3 µM

Query :: Request: `CCCCNC(=O)c1onc(CSc2ccccc2C)c1C(=O)O`
Result :: 50.6 µM

Query :: # repeat for `O=c1c2c3n(c(=S)nc2[nH]n1-c1ccccc1)CCCCC3`
Result :: 13.3 µM

Query :: Now the same for `COC(=O)c1sc(-c2ccc(C(C)(C)C)cc2)cc1NC(=O)CCC(=O)O`
Result :: 28.7 µM

Query :: And for Cc1nn(C)c(C)c1C1C(C#N)=C(N)OC2=C1C(=O)CCC2 (stereo not drawn) ?
Result :: > 100 µM

Query :: Here is the next compound: `O=C(c1cccc(Cl)c1)N1CCN(Cc2ccccc2F)CC1`
Result :: > 100 µM

Query :: `COc1ccc(C(=O)Nc2nc3ccccc3s2)c(OC)c1` , same question.
Result :: > 100 µM

Query :: Could you do the same for `COc1ccc([N+](=O)[O-])cc1NC(=O)c1ccc(Br)s1` , please?
Result :: > 100 µM

Query :: Same lookup for `O=C(COC(=O)C1CC1)c1c[nH]c2ccccc12` , please.
Result :: > 100 µM

Query :: // repeat for `COc1cc(C(=O)Oc2cccnc2)cc(OC)c1OC` and report
Result :: 13.6 µM

Query :: Item: `Cc1c2c(nc3c(C(=O)NC4CCCC4)cnn13)CCCC2`
Result :: > 100 µM

Query :: Now consider `Cn1c(O)c(C2=c3ccccc3=NC2=O)[nH]c1=S` and answer again.
Result :: > 100 µM

Query :: Try this compound next: `Cc1ccc(C(=O)Nc2ccc(N3CCN(C(=O)c4cccs4)CC3)cc2)c(Cl)c1`
Result :: > 100 µM

Query :: Moving on to the next compound: `CCOc1ccc(-c2nnc(SCC(=O)N3CCOCC3)o2)cc1`
Result :: > 100 µM

Query :: Now the same for Cc1ccc(C)c(NC(=O)C(Sc2nc3ccccc3c(=O)n2CC(C)C)c2ccccc2)c1 (stereo not drawn)
Result :: > 100 µM

Query :: Now consider `COc1ccc2nc(NC(=O)NC3CCCCC3)sc2c1` .
Result :: > 100 µM

Query :: Another compound to check: `CC(C)C(=O)Nc1ccc2c3c(cccc13)CC2`
Result :: > 100 µM

Query :: Would you mind doing `COc1ccc(OC)c(Nc2nc(-c3cccs3)cs2)c1` as well?
Result :: > 100 µM
